Recorded IC50 (ng Ab/mL) ± S.E.M., HCC2429, one value per entry.
- System: HCC2429 (lung cancer)
- assay-details: In vitro cytotoxicity (MTS), HCC2429
- Format: cell-based, human
- details: Table 13; four days; LP = lacked potency
metric: IC50 (ng Ab/mL) ± S.E.M., HCC2429

1) ch75-vc6780 (conjugate) VH: QVKLLQSGAALVKPGASVKMSCKASGYAFTDYWVTWVKQSHGKSLEWIGEISPNSGGTNFNEKFKGKATLTVDKSTSTAYMELSRLTSEDSAIYYCTRGEIRYNWFAYWGQGTLVTVSS VL: DIQMTQSPSSLSASVGDRVTITCKASQNVGNNIAWYQQKPGKAPKLLIYYASNRYTGVPSRFSGSGYGTDFTLTISSLQPEDFATYYCQRLYNSPFTFGGGTKVEIK    1004
2) ch28-vc0101: ch28 conjugated to vc0101 linker-payload (conjugate) VH: EVQLVESGGGLVQPGRSLTLSCVASGFTFRDYGMTWIRQAPGKGLTWVAYISSGSNYIYYAEAVKGRFTISRDNAKNTLYLQMTSLRSEDTALYFCTRRGPFVLDAWGQGASVTVSS VL: DIQMTQSPSFLSASVGDRVTINCKASQSINRYLHWFQQKLGEAPKLLIYNANGLQTGIPSRFSGSGSGTDFTLTISSLQSEDVATYFCLQHNTWPDTFGAGTKLELK    3230
